Kindly supply the reported abundance fitness values for the records listed here.
B1: Tyrosine-protein kinase BTK, residues 215 to 273; numbered along this chain, Q06187 (parent)
chain: ELKKVVALYDYMPMNANDLQLRKGDEYFILEESNLPWWRARDKNGQEGYIPSNYVTEAE

- Variants of: B1
- TEST: abundance fitness (aPCA) (normalised: wild type 0, dead -1); higher = more abundant; growth selection in yeast, the domain comes from the species named
- EXPERIMENTAL SETUP: Homo sapiens
Answers are plain numbers.

Sample answers from the record:
* E31W | -0.105
* K23G | -0.143
* I29R | -0.436
* L21F | -1.01
* I29V | -0.002

Okay, here is my list. What is abundance fitness for each of these?
1. I29H
2. I50S
3. A58G
4. N44A
5. G24K
6. G45D

Solution:
-0.99
-1.05
-0.01
-0.041
-0.302
-0.057

Data origin: the Human Domainome abundance scans (Beltran et al. 2025)
